# Test: Inhibition of sphingomyelin synthase in ICR mouse liver homogenates using C6-NBD-Cer as substrate after 2 hrs
# Type: tissue-based
One threshold, 90 µM, splits the recorded IC50 values: lower ones are T, equal or higher ones are F.

Worked cases, answers included:
INSERT INTO results (compound, class) VALUES
  ('N#CC(Nc1ccccc1)c1ccccc1OCc1ccccc1 (stereo unspecified)', 'T'),
  ('N#CC(Nc1ccc(Cl)cc1)c1ccccc1OCc1ccccc1 (stereo unspecified)', 'F'),
  ('S=C(S)OC1CC2CC1C1CCCC21 (stereo unspecified)', 'F'),
  ('N#CC(Nc1ccc(C(N)=O)cc1)c1ccccc1OCc1ccccc1 (stereo unspecified)', 'F');

Q. # check: IC50 < 90 µM for COc1ccccc1NC(C#N)c1ccccc1OCc1ccccc1 (stereo unspecified)
A. T

* * *

Field: IC50. Provide a value for each of the molecules that follow.
# Tested on: Phosphatidylcholine:ceramide cholinephosphotransferase 2 (Homo sapiens, UniProt Q8NHU3)
# Sequence (Q8NHU3 whole entry): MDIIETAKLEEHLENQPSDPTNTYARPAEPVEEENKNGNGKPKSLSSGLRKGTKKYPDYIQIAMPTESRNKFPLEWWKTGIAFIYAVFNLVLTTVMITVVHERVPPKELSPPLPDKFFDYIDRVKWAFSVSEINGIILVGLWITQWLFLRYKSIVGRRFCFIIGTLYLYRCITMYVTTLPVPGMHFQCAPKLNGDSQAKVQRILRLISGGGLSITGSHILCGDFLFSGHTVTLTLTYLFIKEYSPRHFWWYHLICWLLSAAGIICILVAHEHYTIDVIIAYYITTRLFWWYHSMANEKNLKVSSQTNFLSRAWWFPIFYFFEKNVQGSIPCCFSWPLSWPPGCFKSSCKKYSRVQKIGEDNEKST
# Test: Inhibition of SMS2 (unknown origin) expressed in H5 insect cells using C6-NBD-Cer as substrate after 1 hr
One number for each entry, in µM.

INSERT INTO measurements (molecule, quantitative_readout) VALUES
  ('Cc1cccc(C)c1NC(C#N)c1ccccc1OCc1ccccc1 (stereo not drawn)', 31.5),
  ('N#CC(Nc1ccc(O)cc1)c1ccccc1OCc1ccccc1 (stereo not drawn)', 24.4),
  ('N#CC(Nc1cccnc1)c1ccccc1OCc1ccccc1 (stereo not drawn)', 35),
  ('NC(=O)C(Nc1ccccc1)c1ccccc1OCc1ccccc1 (stereo not drawn)', 135),
  ('N#CC(Nc1ccccc1[N+](=O)[O-])c1ccccc1OCc1ccccc1 (stereo not drawn)', 27.4);

Fill in IC50 for each of the 2 molecules listed.
1. N#CC(Nc1ccccc1O)c1ccccc1OCc1ccccc1 (stereo not drawn)
2. COc1ccc(NC(C#N)c2ccccc2OCc2ccccc2)cc1 (stereo not drawn)

A.
1: 19; 2: 48.1

Fill in IC50 for each of the 4 molecules listed.
1. S=C(S)OC1CC2CC1C1CCCC21 (stereo not drawn)
2. N#CC(Nc1ccccc1Cl)c1ccccc1OCc1ccccc1 (stereo not drawn)
3. Cc1ccc(NC(C#N)c2ccccc2OCc2ccccc2)cc1 (stereo not drawn)
4. N#CC(Nc1ccc(C(N)=O)cc1)c1ccccc1OCc1ccccc1 (stereo not drawn)

A.
[224, 15.8, 20.8, 80.5]

Fill in IC50 for each of the 6 molecules listed.
1. N#CC(Nc1ccccc1)c1cccc(OCc2ccccc2)c1 (stereo not drawn)
2. N#CC(NCc1ccco1)c1ccccc1OCc1ccccc1 (stereo not drawn)
3. Cc1ccccc1NC(C#N)c1ccccc1OCc1ccccc1 (stereo not drawn)
4. N#Cc1ccccc1NC(C#N)c1ccccc1OCc1ccccc1 (stereo not drawn)
5. N#CC(Nc1ccc(Cl)cc1)c1ccccc1OCc1ccccc1 (stereo not drawn)
6. N#CC(Nc1ccccc1)c1ccccc1OCc1ccccc1 (stereo not drawn)

A.
1: 50.7; 2: 71; 3: 67.2; 4: 20.3; 5: 22.5; 6: 13.5

Q. State the recorded IC50 for this entry: COc1ccccc1NC(C#N)c1ccccc1OCc1ccccc1 (stereo not drawn)
A. 12.4

* * *

# Test: Cytotoxicity against human HuH7 cells assessed as cell viability after 17 hrs by MTT assay
# Type: cell-based, Huh-7
Quantity kind: CC50 at 17 h (µM)
Answers are plain numbers, in µM.

Q. State the recorded CC50 at 17 h for this entry: N#CC(Nc1ccccc1)c1ccccc1OCc1ccccc1 (stereo unspecified)
A. 245

* * *

# Test: Half life in saline solution at 24 degC
# Format: ADME
Quantity kind: half-life
Please make sure the unit comes right after the number.

Q. State the recorded half-life for this entry: S=C(OC1CC2CC1C1CCCC21)[S][K] (stereo unspecified)
A. 19.5 min

* * *

# Tested on: Sphingomyelin synthase (Mus musculus)
# Test: Inhibition of SMS in ICR mouse liver homogenate using C6-NBD-Cer as substrate after 2 hrs
Quantity kind: pIC50
Numbers only, as −log10 of the molar value.

Q. State the recorded pIC50 for this entry: N#CC1c2ccccc2OC(c2ccccc2O)N1c1ccccc1 (stereo unspecified)
A. 4.12

The values you see were collected from ChEMBL document CHEMBL3112565.
